What % inhibition cell viability was measured for each of the following?
Test system: human dermal fibroblasts (HDFa)
Test: MTT cell viability assay on dermal fibroblasts
Format: cell-based
Conditions: HDFa, 50 μM, 24 hours
Numbers only, in %.

{"substance": "Ac-HYWRELQYR-NH2 [SEQ ID NO: 1 acetyl, HYWRELQYR]", "% inhibition cell viability, %": 3.9}

Give measured % inhibition cell viability for every item shown.
1. Ac-WEQEFLRR-NH2 [SEQ ID NO: 5 acetyl, WEQEFLRR]
2. Ac-MQVWLRMWIDYRAT-NH2 [SEQ ID NO: 2 acetyl, MQVWLRMWIDYRAT]
3. Ac-LRVQMVNMFL-NH2 [SEQ ID NO: 4 acetyl, LRVQMVNMFL]

Output:
1: 10.0; 2: 1.4; 3: 40.6
